competition rate values, listed per item
Target: T1, human MSLN-FL-his protein (human, UniProt Q13421 296-580)
T1 construct: made in HEK293E cells, purified on nickel column; also called hMSLN-FL-his; human MSLN full-length protein; not shown: His tag
T1 sequence (Q13421 other isoform, or with tags, fused parts or gaps): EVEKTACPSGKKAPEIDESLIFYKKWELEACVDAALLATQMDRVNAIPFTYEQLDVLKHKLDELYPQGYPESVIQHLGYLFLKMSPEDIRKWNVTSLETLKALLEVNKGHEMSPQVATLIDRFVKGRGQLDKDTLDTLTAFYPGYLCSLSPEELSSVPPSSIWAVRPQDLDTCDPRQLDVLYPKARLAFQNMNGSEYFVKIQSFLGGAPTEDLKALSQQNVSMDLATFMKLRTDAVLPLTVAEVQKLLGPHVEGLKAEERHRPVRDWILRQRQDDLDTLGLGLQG
Assay: competitive ELISA; row F8-13.8; further: test concentration or dose not given here
Report as a plain number; the unit % is understood.

S009-F8-31.22 (antibody, human IgG1, kappa, V domains shown, human-murine chimeric antibody, human IgG1/kappa constant regions) VH: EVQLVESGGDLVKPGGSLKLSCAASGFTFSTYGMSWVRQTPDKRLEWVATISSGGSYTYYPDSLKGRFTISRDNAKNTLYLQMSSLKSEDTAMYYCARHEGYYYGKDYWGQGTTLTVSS VL: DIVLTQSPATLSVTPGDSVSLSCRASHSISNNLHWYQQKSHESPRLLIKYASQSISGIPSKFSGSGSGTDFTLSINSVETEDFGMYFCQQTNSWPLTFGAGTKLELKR; 5.21

// lookup competition rate for S009-F8-5.15 (antibody, human IgG1, kappa, V domains shown, human-murine chimeric antibody, human IgG1/kappa constant regions) VH: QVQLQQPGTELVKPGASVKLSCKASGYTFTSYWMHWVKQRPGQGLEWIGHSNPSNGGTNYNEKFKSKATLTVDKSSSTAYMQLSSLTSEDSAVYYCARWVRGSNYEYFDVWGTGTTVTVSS VL: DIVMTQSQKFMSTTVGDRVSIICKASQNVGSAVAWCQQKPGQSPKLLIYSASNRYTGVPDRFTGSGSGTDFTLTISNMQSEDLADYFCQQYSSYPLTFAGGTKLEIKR 7.5

Can you check S009-F8-13.8 (antibody, human IgG1, kappa, V domains shown, human-murine chimeric antibody, human IgG1/kappa constant regions) VH: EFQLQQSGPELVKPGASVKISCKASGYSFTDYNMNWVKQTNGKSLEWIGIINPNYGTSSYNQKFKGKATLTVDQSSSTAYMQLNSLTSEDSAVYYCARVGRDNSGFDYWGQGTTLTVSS VL: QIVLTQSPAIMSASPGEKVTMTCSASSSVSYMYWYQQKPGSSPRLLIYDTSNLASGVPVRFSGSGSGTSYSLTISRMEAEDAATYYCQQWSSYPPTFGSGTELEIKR next? 86.2
